Target: plasmin (Homo sapiens)
Experiment: Determination of inhibition constants for plasmin
Assay type: biochemical
Set-up: purchased Calbiochem
Details: 25° C., substrate Chromozym PL, pH 8.0; read-out: Plasmin [Ki]
Procedure: The inhibitory effect for the individual enzymes was determined in analogy to a previously disclosed method (Stürzebecher et al., 1997). For zero order kinetics, the reaction was stopped after 20 min by adding 25 μl of acetic acid (50% v/v), and the absorption at 405 nm was determined using a Microplate Reader (Multiscan Ascent, from Thermo). In the case of pseudo-first order kinetics, the reaction rates in the equilibrium state were ascertained by recording the reaction kinetics. […]
pKi: −log10 of the molar value.
RECORDED_METRIC: pKi

Solved entries:
N#Cc1cccc(C[C@@H](NS(=O)(=O)Cc2ccccc2)C(=O)N[C@@H](CCc2ccncc2)C(=O)NCc2ccc(C(=N)N)cc2)c1 | > 8.00
N=C(N)c1ccc(CNC(=O)[C@H](CCc2ccncc2)NC(=O)[C@@H](CCCc2ccccc2)NS(=O)(=O)Cc2cccc(C(=O)O)c2)cc1 | > 8.00
CC(C)(C)c1ccc(C[C@@H](NS(=O)(=O)Cc2ccccc2)C(=O)N[C@@H](Cc2cccc(CN)c2)C(=O)NCc2ccc(C(=N)N)cc2)cc1 | > 7.00
N=C(N)c1ccc(CNC(=O)[C@H](Cc2c[nH]cn2)NC(=O)[C@@H](CCCc2ccccc2)NS(=O)(=O)Cc2ccccc2)cc1 | > 8.00
N=C(N)c1ccc(CNC(=O)[C@H](Cc2ccc(CN)cc2)NC(=O)[C@@H](CCCc2ccccc2)NS(=O)(=O)Cc2ccccc2)cc1 | > 8.00

For the next question, use this compound.
Q: // returns reported pKi for input COC(=O)c1ccc(CS(=O)(=O)N[C@H](CO)C(=O)N[C@@H](Cc2cccc(CN)c2)C(=O)NCc2ccc(C(=N)N)cc2)cc1
A: > 7.00

###

Biological target: UniProtKB P00747
Assay: Determination of inhibition constants for plasmin
Type: biochemical
Parameters: purchased Calbiochem
Conditions: 25° C., substrate Chromozym PL, pH 8.0; read-out: Plasmin [Ki]
RECORDED_METRIC: Ki

Q: // returns reported Ki for input N=C(N)c1ccc(CNC(=O)[C@H](Cc2cccc(CN)c2)NC(=O)[C@@H](Cc2cccc3ccccc23)NS(=O)(=O)Cc2ccccc2)cc1
A: < 10 nM

Q: // returns reported Ki for input N=C(N)c1ccc(CNC(=O)[C@H](CCc2ccccc2)NC(=O)[C@@H](CCCc2cc[n+]([O-])cc2)NS(=O)(=O)Cc2ccccc2)cc1
A: < 10 nM

###

Each entry below lists one item and its recorded pKi value.
Molecular target: plasma kallikrein (Homo sapiens, UniProt P03952)
Sequence (P03952 391-638 limits assumed): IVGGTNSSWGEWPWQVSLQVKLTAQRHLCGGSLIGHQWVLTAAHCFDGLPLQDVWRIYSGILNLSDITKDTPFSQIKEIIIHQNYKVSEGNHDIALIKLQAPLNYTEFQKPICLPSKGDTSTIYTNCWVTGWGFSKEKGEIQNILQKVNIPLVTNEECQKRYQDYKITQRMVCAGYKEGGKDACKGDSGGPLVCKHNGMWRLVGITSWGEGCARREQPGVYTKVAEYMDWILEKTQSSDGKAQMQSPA
Sequence (P03952 20-390 partner limits assumed): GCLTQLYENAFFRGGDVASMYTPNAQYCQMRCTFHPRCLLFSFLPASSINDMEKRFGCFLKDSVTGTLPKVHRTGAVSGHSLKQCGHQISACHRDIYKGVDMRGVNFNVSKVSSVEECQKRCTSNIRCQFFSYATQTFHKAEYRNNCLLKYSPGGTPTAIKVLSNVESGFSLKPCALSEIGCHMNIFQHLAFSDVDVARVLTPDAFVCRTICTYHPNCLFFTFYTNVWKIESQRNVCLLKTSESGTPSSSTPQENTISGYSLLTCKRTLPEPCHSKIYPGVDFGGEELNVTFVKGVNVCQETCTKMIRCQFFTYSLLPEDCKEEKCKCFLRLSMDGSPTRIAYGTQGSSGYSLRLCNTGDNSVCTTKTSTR
Experiment: Determination of inhibition constants for PK
Format: biochemical
Parameters: purchased Enzyme Research Lab. / Enzyme Research Laboratories
Conditions: 25° C., substrate S2302, pH 8.0; read-out: PK [Ki]
pKi: −log10 of the molar value.

Q: // returns reported pKi for input N=C(N)c1ccc(CNC(=O)[C@H](Cc2cccc(CN)c2)NC(=O)[C@H](NS(=O)(=O)Cc2ccccc2)C(c2ccccc2)c2ccccc2)cc1
A: > 8.00

Q: // returns reported pKi for input N=C(N)c1ccc(CNC(=O)[C@H](CCCc2ccccc2)NC(=O)[C@@H](CCc2ccncc2)NS(=O)(=O)Cc2ccccc2)cc1
A: > 8.00

Q: // returns reported pKi for input N=C(N)c1ccc(CNC(=O)[C@H](CCc2ccc(CN)cc2)NC(=O)[C@@H](CCc2ccc(O)cc2)NS(=O)(=O)Cc2ccccc2)cc1
A: > 8.00

Q: // returns reported pKi for input N=C(N)c1ccc(CNC(=O)[C@H](Cc2cccc(CN)c2)NC(=O)[C@@H](CO)NS(=O)(=O)Cc2ccccc2)cc1 [compound 72]
A: > 7.00

Q: // returns reported pKi for input N=C(N)c1ccc(CNC(=O)[C@H](Cc2cccc(CN)c2)NC(=O)[C@@H](CCCc2ccccc2)NS(=O)(=O)Cc2ccc(C(=O)O)cc2)cc1
A: > 8.00

Q: // returns reported pKi for input N=C(N)c1ccc(CNC(=O)[C@H](Cc2c[nH]cn2)NC(=O)[C@@H](CCCc2ccccc2)NS(=O)(=O)Cc2ccccc2)cc1
A: > 7.00

###

Consider compounds characterized by their Ki with Xa (Homo sapiens, UniProt P00742).
Sequence (P00742 235-488 limits assumed): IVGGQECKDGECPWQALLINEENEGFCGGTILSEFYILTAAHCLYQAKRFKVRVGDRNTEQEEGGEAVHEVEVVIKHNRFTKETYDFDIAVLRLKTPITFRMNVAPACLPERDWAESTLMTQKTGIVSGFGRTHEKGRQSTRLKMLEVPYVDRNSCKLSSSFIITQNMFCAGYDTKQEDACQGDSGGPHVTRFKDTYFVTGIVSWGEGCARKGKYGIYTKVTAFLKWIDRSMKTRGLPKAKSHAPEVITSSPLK
Sequence (P00742 41-179 limits assumed): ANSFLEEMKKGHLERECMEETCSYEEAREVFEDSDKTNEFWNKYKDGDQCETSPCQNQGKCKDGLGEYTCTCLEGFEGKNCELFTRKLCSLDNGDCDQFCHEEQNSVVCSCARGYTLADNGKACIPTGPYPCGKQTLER

N=C(N)c1ccc(CNC(=O)[C@H](Cc2cccc(CN)c2)NC(=O)[C@@H](CCCc2ccc(C(F)(F)F)cc2)NS(=O)(=O)Cc2ccccc2)cc1 | < 10 nM
CC(C)(C)c1ccc(C[C@@H](NS(=O)(=O)Cc2ccccc2)C(=O)N[C@@H](Cc2cccc(CN)c2)C(=O)NCc2ccc(C(=N)N)cc2)cc1 | < 100 nM
N=C(N)c1ccc(CNC(=O)[C@H](CCc2ccccc2)NC(=O)[C@@H](CCCc2ccncc2)NS(=O)(=O)Cc2cccc(C(=O)O)c2)cc1 | < 100 nM
N=C(N)c1ccc(CC[C@H](NC(=O)[C@@H](CO)NS(=O)(=O)Cc2ccccc2)C(=O)NCc2ccc(C(=N)N)cc2)cc1 | > 1000 nM
N=C(N)Nc1ccc(CNC(=O)[C@H](Cc2cccc(CN)c2)NC(=O)[C@@H](CCCc2ccccc2)NS(=O)(=O)Cc2cccc(C(=O)O)c2)cc1 | > 1000 nM

For the next question, use this compound.
Q: // returns reported Ki for input N=C(N)c1ccc(CNC(=O)[C@H](Cc2cccc(CN)c2)NC(=O)[C@@H](CCc2ccc(O)cc2)NS(=O)(=O)Cc2ccccc2)cc1
A: < 10 nM

###

Each entry below lists one item and its recorded pKi value.
Biological target: plasmin (Homo sapiens, UniProt P00747)
Sequence (P00747 581-810 limits assumed): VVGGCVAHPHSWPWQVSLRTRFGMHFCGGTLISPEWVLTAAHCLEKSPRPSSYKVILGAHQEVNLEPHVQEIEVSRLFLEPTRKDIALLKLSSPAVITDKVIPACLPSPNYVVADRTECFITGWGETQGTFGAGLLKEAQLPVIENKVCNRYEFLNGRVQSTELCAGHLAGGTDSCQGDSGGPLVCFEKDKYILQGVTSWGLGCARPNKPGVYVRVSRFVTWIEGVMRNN
Sequence (P00747 97-580 partner limits assumed): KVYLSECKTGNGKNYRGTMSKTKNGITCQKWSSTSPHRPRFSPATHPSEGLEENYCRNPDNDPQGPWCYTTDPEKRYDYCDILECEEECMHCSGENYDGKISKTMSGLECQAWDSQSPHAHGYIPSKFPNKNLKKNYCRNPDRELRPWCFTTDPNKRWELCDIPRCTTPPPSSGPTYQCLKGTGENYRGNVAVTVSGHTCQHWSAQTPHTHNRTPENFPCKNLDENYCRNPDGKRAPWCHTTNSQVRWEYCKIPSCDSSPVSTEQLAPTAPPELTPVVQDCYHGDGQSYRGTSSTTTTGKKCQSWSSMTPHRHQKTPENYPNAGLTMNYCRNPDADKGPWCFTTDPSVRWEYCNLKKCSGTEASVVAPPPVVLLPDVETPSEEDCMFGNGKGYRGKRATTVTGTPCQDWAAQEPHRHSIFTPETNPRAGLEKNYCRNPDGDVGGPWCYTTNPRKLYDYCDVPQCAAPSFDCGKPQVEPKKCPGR
Assay: Determination of inhibition constants for plasmin
Type: biochemical
Parameters: purchased Calbiochem
Conditions: 25° C., substrate Chromozym PL, pH 8.0; read-out: Plasmin [Ki]
pKi: −log10 of the molar value.

N=C(N)c1ccc(CNC(=O)[C@H](CCc2ccccc2)NC(=O)[C@@H](CCc2ccc(O)cc2)NS(=O)(=O)Cc2ccccc2)cc1 | > 8.00
N=C(N)c1ccc(CNC(=O)[C@H](Cc2cccc(CN)c2)NC(=O)[C@@H](Cc2ccc3ccccc3c2)NS(=O)(=O)Cc2ccccc2)cc1 | > 8.00
CC(C)(C)OC(=O)NC[C@@H](NS(=O)(=O)Cc1ccccc1)C(=O)N[C@@H](Cc1cccc(CN)c1)C(=O)NCc1ccc(C(=N)N)cc1 | > 7.00
N=C(N)c1ccc(CNC(=O)[C@H](CCc2ccncc2)NC(=O)[C@@H](CCc2ccc(O)cc2)NS(=O)(=O)Cc2ccccc2)cc1 | > 8.00
COc1ccc(CCC[C@@H](NS(=O)(=O)Cc2ccccc2)C(=O)N[C@@H](Cc2cccc(CN)c2)C(=O)NCc2ccc(C(=N)N)cc2)cc1 | > 8.00

For the next question, use this molecule.
Q: // returns reported pKi for input N=C(N)c1ccc(CNC(=O)[C@H](Cc2cccc(CN)c2)NC(=O)[C@@H](Cc2ccc3ccccc3c2)NS(=O)(=O)Cc2cccc(C(=O)O)c2)cc1
A: > 8.00

###

Target: plasmin (Homo sapiens, UniProt P00747)
Test: Determination of inhibition constants for plasmin
Assay type: biochemical
Parameters: purchased Calbiochem
Details: 25° C., substrate Chromozym PL, pH 8.0; read-out: Plasmin [Ki]
Protocol: The inhibitory effect for the individual enzymes was determined in analogy to a previously disclosed method (Stürzebecher et al., 1997). For zero order kinetics, the reaction was stopped after 20 min by adding 25 μl of acetic acid (50% v/v), and the absorption at 405 nm was determined using a Microplate Reader (Multiscan Ascent, from Thermo). In the case of pseudo-first order kinetics, the reaction rates in the equilibrium state were ascertained by recording the reaction kinetics. […]
pKi: −log10 of the molar value.
Each entry below lists one item and its recorded pKi value.

Solved entries:
N=C(N)c1ccc(CNC(=O)[C@H](CCc2ccccc2)NC(=O)[C@@H](CCCc2ccccc2)NS(=O)(=O)Cc2cccc(C(=O)O)c2)cc1 | > 8.00
N=C(N)c1ccc(CNC(=O)[C@H](CCc2ccc(CN)cc2)NC(=O)[C@@H](CC2CCCCC2)NS(=O)(=O)Cc2ccccc2)cc1 | > 7.00
N=C(N)c1ccc(CNC(=O)[C@H](CCc2ccccc2)NC(=O)[C@@H](CCCc2cccnc2)NS(=O)(=O)Cc2cccc(C(=O)O)c2)cc1 | > 8.00
N=C(N)c1ccc(CNC(=O)[C@H](Cc2cccc(CN)c2)NC(=O)[C@@H](CCCc2ccc(C(F)(F)F)cc2)NS(=O)(=O)Cc2ccccc2)cc1 | > 8.00
CC(C)(C)OC(=O)NCCCC[C@@H](NS(=O)(=O)Cc1ccc(C(=O)O)cc1)C(=O)N[C@@H](Cc1cccc(CN)c1)C(=O)NCc1ccc(C(=N)N)cc1 | > 7.00

For the next question, use this compound.
Q: // returns reported pKi for input N=C(N)c1ccc(CNC(=O)[C@H](Cc2c[nH]cn2)NC(=O)[C@@H](CCCc2ccccc2)NS(=O)(=O)Cc2cccc(C(=O)O)c2)cc1
A: > 8.00
